The values you see were collected from patent US20240270821A1.

Molecular target: T1, human GIP receptor (human) (UniProt P48546)
T1 sequence (looked up): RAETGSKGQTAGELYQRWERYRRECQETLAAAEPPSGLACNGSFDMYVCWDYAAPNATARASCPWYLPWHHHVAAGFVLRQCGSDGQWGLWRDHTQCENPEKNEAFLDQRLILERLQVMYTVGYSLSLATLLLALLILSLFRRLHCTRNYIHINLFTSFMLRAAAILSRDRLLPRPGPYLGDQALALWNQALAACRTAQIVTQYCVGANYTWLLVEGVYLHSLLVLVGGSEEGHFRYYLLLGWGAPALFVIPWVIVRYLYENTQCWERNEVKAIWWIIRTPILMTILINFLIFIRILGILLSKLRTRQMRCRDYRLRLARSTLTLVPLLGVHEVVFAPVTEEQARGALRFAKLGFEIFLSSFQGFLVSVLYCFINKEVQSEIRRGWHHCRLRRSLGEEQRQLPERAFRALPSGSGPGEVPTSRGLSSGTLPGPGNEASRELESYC
Assay: cell-based or functional assay
Starred links: 1 amine or outer side, 2 acyl side, 3 side chain; linkers in the order of their positions; H or OH if unused. Non-standard residues stand in square brackets, D forms with d. Groups on a side chain read outwards from the residue. No end group written: not given here. *: point of attachment. C20 diacid = O=C(O)CCCCCCCCCCCCCCCCCCC(=O)*; Phe(4-CN) = N#Cc1ccc(C[C@H](N)C(=O)O)cc1; αMePhe(2-F) = C[C@](N)(Cc1ccccc1F)C(=O)O; γGlu = O=C(O)[C@H](CCC(=O)[*:2])N[*:1]; AEEA = NCCOCCOCC(=O)O; Aib = CC(C)(N)C(=O)O
measurement_kind: log10 of cAMP Rel EC50, nM (1% HSA) (log10 of the value in nM)

{"binder": "YXQGTFTSDFSXXLDKKAQXAFIEYLLEXGPSSGEPPPEGS (synthetic construct; SITE 2: note = 2-Aminoisobutyric Acid; SITE 12: note = L-ornithine; SITE 13: note = alpha-methyl-leucine; SITE 17: note = Lysine is chemically modified through conjugation of the epsilon-amino group of the Lysine side chain with (2-[2-(2-Amino-ethoxy)-ethoxy]-acetyl)2-(gamma-Glu)) [Example 195]", "log10 of cAMP Rel EC50, nM (1% HSA)": 1.46}
{"binder": "YXQGTFTSDXSXXLDKKAQXAFIEXLIEGGPSSGAPPPSGS (Aib, 4Pal, Orn, Me4Pal; acylated lysine; amide; synthetic construct; SITE 2: note = 2-Aminoisobutyric Acid; SITE 10: note = 3-(4-Pyridyl)-L-alanine; SITE 12: note = L-ornithine; SITE 13: note = alpha-methyl-leucine; SITE 17: note = Lysine is chemically modified through conjugation of the epsilon-amino group of the Lysine side chain with (2-[2-(2-) [Example 949]", "log10 of cAMP Rel EC50, nM (1% HSA)": 1.41}
{"binder": "YXQGTFTSDYSKXLDKKAQXAFIEYLLEGGESSGAPPPSGS (synthetic construct; SITE 2: note = 2-Aminoisobutyric Acid; SITE 13: note = alpha-methyl-leucine; SITE 17: note = Lysine is chemically modified through conjugation of the epsilon-amino group of the Lysine side chain with (2-[2-(2-Amino-ethoxy)-ethoxy]-acetyl)-(gamma-Glu)-CO-(CH2) 16-CO2H; SITE 20: n) [Example 358]", "log10 of cAMP Rel EC50, nM (1% HSA)": 1.59}
{"binder": "YXQGTFTSDFSQXLDKKAQXAFIEYLLEAGPSSGAPPPSGX (synthetic construct; SITE 2: note = 2-Aminoisobutyric Acid; SITE 13: note = alpha-methyl-leucine; SITE 17: note = Lysine is chemically modified through conjugation of the epsilon-amino group of the Lysine side chain with (2-[2-(2-Amino-ethoxy)-ethoxy]-acetyl)-(gamma-Glu)-CO-(CH2) 16-CO2H; SITE 20: n) [Example 777]", "log10 of cAMP Rel EC50, nM (1% HSA)": 1.35}
{"binder": "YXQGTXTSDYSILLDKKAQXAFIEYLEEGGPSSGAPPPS (synthetic construct; SITE 2: note = 2-Aminoisobutyric Acid; SITE 6: note = alpha-methyl-L-phenylalanine; SITE 17: note = Lysine is chemically modified through conjugation of the epsilon-amino group of the Lysine side chain with (2-[2-(2-Amino-ethoxy)-ethoxy]-acetyl)-(gamma-Glu)-CO-(CH2) 16-CO2H; SIT) [Example 392]", "log10 of cAMP Rel EC50, nM (1% HSA)": 1.46}
{"binder": "YXQGTFTSDXSXXLDKKAQXAFIEYLIAGGPSSGEPPPSGTEE (Aib, 4Pal, Orn, αMeL, Me4Pal; K (γGlu)2-C18 diacid; amide; synthetic construct; SITE 2: note = 2-Aminoisobutyric Acid; SITE 10: note = 3-(4-Pyridyl)-L-alanine; SITE 12: note = L-ornithine; SITE 13: note = alpha-methyl-leucine; SITE 17: note = Lysine is chemically modified through conjugation of the epsilon-amino group of the Lysine side chain with (gamma-Gl)) [Example 981]", "log10 of cAMP Rel EC50, nM (1% HSA)": 1.32}
{"binder": "YXQGTFTSDFSQXLDKKAQXAFIEYLLEXGESSGAPPPSGS (synthetic construct; SITE 2: note = 2-Aminoisobutyric Acid; SITE 13: note = alpha-methyl-leucine; SITE 17: note = Lysine is chemically modified through conjugation of the epsilon-amino group of the Lysine side chain with (2-[2-(2-Amino-ethoxy)-ethoxy]-acetyl)2-(gamma-Glu)-CO-(CH2 )16-CO2H; SITE 20:) [Example 787]", "log10 of cAMP Rel EC50, nM (1% HSA)": 1.27}
{"binder": "Y[Aib]QGT[αMePhe(2-F)]TSD[Phe(4-CN)]SILLDKQAQKAFIEYLLEGGPSSGEPPPSAG-NH2 (not fully specified (residue 20)) [Example 350]", "log10 of cAMP Rel EC50, nM (1% HSA)": 1.53}
{"binder": "Y[Aib]QGT[αMePhe(2-F)]TSDYSKLLDKIAQKAFIEYLIEGGPSSGAPPPEGE-NH2 (not fully specified (residue 20)) [Example 357]", "log10 of cAMP Rel EC50, nM (1% HSA)": 1.63}
{"binder": "Y[Aib]QGT[αMePhe(2-F)]TSD[Phe(4-CN)]SKLLDKIAQK([AEEA-γGlu-C20 diacid])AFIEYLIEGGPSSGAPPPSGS-NH2 [Example 363]", "log10 of cAMP Rel EC50, nM (1% HSA)": 1.96}
{"binder": "YXQGTXTSDXXIXLDXKAAXEFIEXLIEGGPSSGAPPPSGGGE (synthetic construct; SITE 2: note = 2-Aminoisobutyric Acid; SITE 6: note = alpha-methyl-2-fluoro-L-phenylalanine; SITE 10: note = 3-(4-Pyridyl)-L-alanine; SITE 11: note = alpha-methyl-L-serine; SITE 13: note = alpha-methyl-leucine; SITE 16: note = L-ornithine; SITE 17: note = Lysine is chemically mo) [Example 747]", "log10 of cAMP Rel EC50, nM (1% HSA)": -0.19}
